SUBJECT OF TEST: GLP-1 Receptor (Homo sapiens, UniProt P43220)
Sequence (P43220 24-463, species assumed): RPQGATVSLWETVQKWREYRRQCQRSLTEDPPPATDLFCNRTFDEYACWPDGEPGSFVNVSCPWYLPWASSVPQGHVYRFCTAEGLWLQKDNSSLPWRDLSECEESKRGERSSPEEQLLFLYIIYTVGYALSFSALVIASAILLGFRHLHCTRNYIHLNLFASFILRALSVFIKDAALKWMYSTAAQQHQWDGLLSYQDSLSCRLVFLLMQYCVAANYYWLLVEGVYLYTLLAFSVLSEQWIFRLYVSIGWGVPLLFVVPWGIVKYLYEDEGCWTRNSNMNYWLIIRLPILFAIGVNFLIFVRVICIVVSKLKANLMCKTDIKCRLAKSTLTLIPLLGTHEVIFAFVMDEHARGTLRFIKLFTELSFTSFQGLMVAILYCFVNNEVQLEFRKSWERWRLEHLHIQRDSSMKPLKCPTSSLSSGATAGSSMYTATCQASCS
EXPERIMENT SUMMARY: GLP-1R agonist cAMP stimulation assay (HEK293/GLP1R/CRE-LUC cells, cAMP dynamic 2 Kit)
CONDITION SET: HEK293/CRE-Luc cell line stably expressing the GLP-1 Receptor, 30 min at 37° C.
EC50 values for the compounds below.
The answer should read as a number with its unit following.

Answered examples (10):
INSERT INTO results (compound, quantity_measured, observed_measurement) VALUES
  ('C[C@]1(c2ccc(Cl)cn2)Oc2cccc(C3CCN(Cc4nc5cc(-c6noc(=O)[nH]6)ncc5n4C[C@@H]4CCO4)CC3)c2O1 [Compound 430a]', 'EC50', '0.04 nM'),
  ('CC(=O)Nc1ccc2c(c1)nc(CN1CCC(c3cccc(OCc4ccc(Cl)cc4F)n3)CC1)n2C[C@@H]1CCO1 [Compound 101a]', 'EC50', '1.09 nM'),
  ('CC1(c2ccc(Cl)cc2)Oc2cccc(C3CCN(Cc4nc5cc(-c6nnc(C(F)(F)F)[nH]6)ccc5n4CC4(C#N)CC4)CC3)c2O1 (stereo not drawn) [Compound 446]', 'EC50', '0.12 nM'),
  ('Nc1cccc(-c2ccc3c(c2)nc(CN2CCC(c4cccc(OCc5ccc(Cl)cc5F)n4)CC2)n3C[C@@H]2CCO2)n1 [Compound 212a]', 'EC50', '7.5 nM'),
  ('O=C(Nc1ccc2c(c1)nc(CN1CCC(c3cccc(OCc4ccc(Cl)cc4F)n3)CC1)n2C[C@@H]1CCO1)C1CCCNC1 (stereo partly drawn) [Compound 203a]', 'EC50', '3.2 nM'),
  ('CC1(c2ccc(C#N)cn2)Oc2cccc(C3CCN(Cc4nc5cc(-c6nnc(C(F)(F)F)[nH]6)ccc5n4C[C@@H]4CCO4)CC3)c2O1 (stereo partly drawn) [Compound 354a]', 'EC50', '0.11 nM'),
  ('N#Cc1ccc(COc2cccc(C3CCN(Cc4nc5cc(-c6nnc(C(F)(F)F)[nH]6)nnc5n4C[C@@H]4CCO4)CC3)n2)c(F)c1 [Compound 487a]', 'EC50', '0.029 nM'),
  ('O=C(Nc1ccc2c(c1)nc(CN1CCC(c3cccc(OCc4ccc(Cl)cc4F)n3)CC1)n2C[C@@H]1CCO1)C1CCCOC1 (single isomer, unassigned) [Compound 154c]', 'EC50', '1.5 nM'),
  ('O=C(Nc1ccc2c(c1)nc(CN1CCC(c3cccc(OCc4ccc(Cl)cc4F)n3)CC1)n2C[C@@H]1CCO1)C1CCO1 (stereo partly drawn) [Compound 129a]', 'EC50', '0.56 nM'),
  ('N#Cc1ccc(COc2cccc(C3=CCN(Cc4nc5cc(-c6noc(=O)[nH]6)cnc5n4C[C@@H]4CCO4)CC3)c2)c(F)c1 [Compound 318a]', 'EC50', '10 nM');

Query: EC50; subject: CC1(c2ccc(Cl)cc2F)Oc2cccc(C3CCN(Cc4nc5cc(-c6nnc(C(F)(F)F)[nH]6)c(F)cc5n4C[C@@H]4CCO4)CC3)c2O1 (stereo partly drawn) [Compound 248a]
0.11 nM
